SUBJECT OF TEST: T1, recombinant biotinylated CD137 protein (Fc-fusion protein, R&D Systems 838-4B) (human, UniProt Q07011 24-186, biotinylated, sites not stated)
T1 construct: Bought Fc fusion; also called CD137-Fc
ASSAY METHOD TEXT: ELISA, lysate on biotinylated CD137-Fc
RESULT TYPE: ELISA CD137 (RLU)

I: ISOP193GR9P1B3 (designed binder, not shown: small tags and cut ends) LPAPKNLVVSRVTEDSARLSWTAPDAAFDSFAIGYVEWTANGEAIVLIVPGSERSYDLTGLKPGTEYVVRIRGGVKGGDSSFPLRADFTT
II: ISOP193HR9P1A6 (designed binder, not shown: small tags and cut ends) LPAPKNLVVSRVTEDSARLSWTAPDAAFDSFDIYYYELRLGGEAIVLTVPGSERSYDLTGLKPGTEYLVSIYGVKGCGYSDPLSAIFTT
## Task Larger number for ELISA CD137 (RLU): I , or II ? API: response body contains the label of the selected item.
## Result II

a: ISOP193BR9P1G2 (designed binder, not shown: small tags and cut ends) LPAPKNLVVSRVTEDSARLSWAGHYRKIRNFDSFLIQYQESEKVGEAIVLTVPGSERSYDLTGLKPGTEYTVSIYGVAEHWYYATQDSNPLSAIFTT
b: ISOP193ER9P1G9 (designed binder, not shown: small tags and cut ends) LPAPKNLVVSRVTEDSARLSWTAPDAAFDSFDIYYFEHPVGGEAIVLTVPGSERSYDLTGLKPGTEYLVTIYGVKGGNGSSPLSAIFTT
c: ISOP193GR9P1A7 (designed binder, not shown: small tags and cut ends) LPAPKNLVVSRVTEDSARLSWTAPDAAFDSFAIFYHEFANPGEAIDLPVPGSERSYDLTGLKPGTEYDVRIYGVKGGTASIPLDAEFTT
## Task Please list these binders in decreasing order of ELISA CD137 (RLU). Reply: labels, ordered per the request.
## Result b, a, c
(b: 1.29e+07 RLU, a: 6.15e+06 RLU, c: 2.15e+06 RLU)
